run-description: Drug level in C57BL/6 mouse at 1 mg/kg, sc measured after 24 hrs by LC-MS analysis
Type: ADME, organism-based
condition-details: in vivo, read-out: Drug uptake
Numbered stars: 1 amine (or outer) side, 2 acyl side, 3 side chain; on linkers, the order of the positions; unused ones are H or OH. Bridge positions count the residues as written; N and C are the ends. Peptide text beside a SMILES is read from it. * marks the point of attachment. X1 = O=C(O)CCCCCCCCCCCCCCCCC(=O)N[C@@H](CCCCNC(=O)CCOCCOCCNC(=O)CCOCCOCCNC(=O)C*)C(=O)O; X2 = O=C(CCC[*:2])[*:1]
measured-attribute: concentration at 24 h

[[record]]
compound = "CC[C@H](C)[C@@H]1NC(=O)[C@H](Cc2ccc(O)cc2)NC(=O)CCCSC[C@@H](C(=O)NCC(=O)N[C@@H](CSCC(=O)NCCOCCOCCC(=O)NCCOCCOCCC(=O)NCCCC[C@H](NC(=O)CCCCCCCCCCCCCCCCC(=O)O)C(=O)O)C(=O)NCC(N)=O)NC(=O)[C@H](CC(N)=O)NC(=O)[C@H](CCC(N)=O)NC1=O (YIQNCGC(X1)G-NH2; linker N-5 via X2)"
value = "> 850 nM"

